Molecular target: PTK2 (Homo sapiens, UniProt Q05397)
Sequence (Q05397 whole entry): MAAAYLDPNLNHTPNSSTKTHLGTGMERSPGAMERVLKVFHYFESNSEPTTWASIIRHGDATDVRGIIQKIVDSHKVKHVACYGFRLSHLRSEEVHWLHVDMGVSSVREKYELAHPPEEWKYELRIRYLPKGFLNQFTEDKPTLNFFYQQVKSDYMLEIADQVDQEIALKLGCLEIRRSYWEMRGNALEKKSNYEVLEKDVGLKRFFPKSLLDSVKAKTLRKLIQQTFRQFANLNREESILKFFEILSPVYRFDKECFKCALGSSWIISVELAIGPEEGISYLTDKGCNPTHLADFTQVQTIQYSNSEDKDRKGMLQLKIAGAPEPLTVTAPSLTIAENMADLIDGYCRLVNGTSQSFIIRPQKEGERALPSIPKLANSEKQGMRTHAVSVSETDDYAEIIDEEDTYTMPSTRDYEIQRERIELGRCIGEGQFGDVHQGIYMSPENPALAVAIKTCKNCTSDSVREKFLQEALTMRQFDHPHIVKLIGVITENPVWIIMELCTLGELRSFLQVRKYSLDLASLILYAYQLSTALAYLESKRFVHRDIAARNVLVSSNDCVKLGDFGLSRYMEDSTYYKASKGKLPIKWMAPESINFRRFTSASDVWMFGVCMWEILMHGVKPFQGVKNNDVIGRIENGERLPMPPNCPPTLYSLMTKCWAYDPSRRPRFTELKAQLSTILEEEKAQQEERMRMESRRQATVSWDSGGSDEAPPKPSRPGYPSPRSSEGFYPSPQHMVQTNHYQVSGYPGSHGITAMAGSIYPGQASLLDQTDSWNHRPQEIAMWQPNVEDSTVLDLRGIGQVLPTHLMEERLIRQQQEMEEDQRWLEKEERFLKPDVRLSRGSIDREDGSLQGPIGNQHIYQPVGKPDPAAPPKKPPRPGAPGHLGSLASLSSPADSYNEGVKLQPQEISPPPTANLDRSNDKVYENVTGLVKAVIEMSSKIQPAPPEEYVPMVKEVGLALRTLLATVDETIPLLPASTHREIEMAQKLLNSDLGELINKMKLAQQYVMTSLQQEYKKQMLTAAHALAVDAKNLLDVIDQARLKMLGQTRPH
Assay: PTK2 Enzyme Test (DELFIA assay, poly-Glu-Tyr substrate)
Details: active PTK2 enzyme, 50 μM ATP in ATP Mix, 1 h pre-incubation
Consider the cut-off 3 nM. If the recorded IC50 is strictly smaller, the label is true (1); if not, the label is false (0).

Check out these entries, answers already filled in.
Prompt: Is it true that IC50 reported for COc1cc(C(=O)N[C@H]2CC[C@H](N3CCOCC3)CC2)ccc1Nc1ncc(C(F)(F)F)c(NCc2ccc(C)cc2N(C)S(C)(=O)=O)n1 is less than 3 nM?
Completion: true (1)

Prompt: Below 3 nM on IC50? Entry CCN(CC)CCNC(=O)c1ccc(Nc2ncc(C(F)(F)F)c(NCc3ccc(C)cc3N(C)S(C)(=O)=O)n2)c(OC)c1
Completion: true (1)

Prompt: For COc1cc(C(=O)NC2CCN(C)CC2)c(F)cc1Nc1ncc(C(F)(F)F)c(NCc2ccc(C)cc2N(C)S(C)(=O)=O)n1 , is the recorded IC50 below the cut-off of 3 nM?
Completion: true (1)

Prompt: Record COc1cc(N2CCN(C)CC2)ccc1Nc1ncc(C(F)(F)F)c(NCc2ccc(C)cc2N(C)S(C)(=O)=O)n1 : is its IC50 strictly below 3 nM?
Completion: true (1)

Prompt: Is IC50 strictly under 3 nM for the entry COc1cc(C(=O)NC2CCC(NC(C)=O)CC2)ccc1Nc1ncc(C(F)(F)F)c(NCc2ccc(C)cc2N(C)S(C)(=O)=O)n1 (centres unmarked) ?
Completion: false (0)

Prompt: Problem: For the compound COc1cc(C(=O)NC2CCNCC2)ccc1Nc1ncc(C(F)(F)F)c(NCc2ccc(C)cc2N(C)S(C)(=O)=O)n1 , is IC50 under 3 nM?
Completion: true (1)

Prompt: Record Cc1ccc(CNc2nc(Nc3ccc(C(=O)NC4CCN(C)CC4)cc3C)ncc2C(F)(F)F)c(N(C)S(C)(=O)=O)c1 : is its IC50 strictly below 3 nM?
Completion: true (1)

Prompt: Is the reported IC50 for CC(=O)Nc1ccc(Nc2ncc(C(F)(F)F)c(NCc3ccc(C)cc3N(C)S(C)(=O)=O)n2)cc1Cl strictly below 3 nM?
Completion: true (1)

***
Prompt: I'd appreciate it if you could check whether COc1cc(C(=O)N[C@H]2CCCN(C3CCOCC3)C2)ccc1Nc1ncc(C(F)(F)F)c(NCc2ccc(C)cc2N(C)S(C)(=O)=O)n1 has IC50 smaller than 3 nM.
Completion: false (0)
